The measured values listed here are drawn from patent US20210147455A1.

test: Stability experiments under 40° C.±2° C. and 75% R.H±5% R.H (accelerated test); assay type: physicochemical; details: month 6; 40° C./75% R.H

| molecule | Description |
| --- | --- |
| CC[C@@H]([C@H](C)OP(=O)([O-])[O-])n1ncn(-c2ccc(N3CCN(c4ccc(OC[C@@H]5CO[C@@](Cn6cncn6)(c6ccc(F)cc6F)C5)cc4)CC3)cc2)c1=O.O.O.O.O.O.[Na+].[Na+] [Comparative Example 9] | White |
| CCC(C(C)OP(=O)([O-])[O-])n1ncn(-c2ccc(N3CCN(c4ccc(OCC5COC(Cn6cncn6)(c6ccc(F)cc6F)C5)cc4)CC3)cc2)c1=O.C[N+](C)(C)CCO.C[N+](C)(C)CCO.O.O.O.O.O (centres unmarked) [Comparative Example 2] | White |

---

test: Stability experiments under 25° C.±2° C. and 65% R.H±5% R.H; settings: month 3; 25° C./65% R.H
# Related substance annotations
Answer format: numeric, % implied, no suffix.

| compound | Related substance / % |
| --- | --- |
| CC[C@@H]([C@H](C)OP(=O)(O)O)n1ncn(-c2ccc(N3CCN(c4ccc(OC[C@@H]5CO[C@@](Cn6cncn6)(c6ccc(F)cc6F)C5)cc4)CC3)cc2)c1=O.CNC[C@H](O)[C@@H](O)[C@H](O)[C@H](O)CO | 0.19 |

Query: # query: Related substance of entry CC[C@@H]([C@H](C)OP(=O)([O-])[O-])n1ncn(-c2ccc(N3CCN(c4ccc(OC[C@@H]5CO[C@@](Cn6cncn6)(c6ccc(F)cc6F)C5)cc4)CC3)cc2)c1=O.C[N+](C)(C)CCO.C[N+](C)(C)CCO [Comparative Example 1, Posaconazole Phosphate Bicholinate]
Result: 0.14

Query: # query: Related substance of entry CC[C@@H]([C@H](C)OP(=O)([O-])[O-])n1ncn(-c2ccc(N3CCN(c4ccc(OC[C@@H]5CO[C@@](Cn6cncn6)(c6ccc(F)cc6F)C5)cc4)CC3)cc2)c1=O.O.O.O.O.O.[Na+].[Na+]
Result: 0.27

Query: # query: Related substance of entry CCC(C(C)OP(=O)([O-])[O-])n1ncn(-c2ccc(N3CCN(c4ccc(OCC5COC(Cn6cncn6)(c6ccc(F)cc6F)C5)cc4)CC3)cc2)c1=O.C[N+](C)(C)CCO.C[N+](C)(C)CCO.O.O.O.O.O (stereo not shown)
Result: 0.14

Query: # query: Related substance of entry CC[C@@H]([C@H](C)OP(=O)(O)O)n1ncn(-c2ccc(N3CCN(c4ccc(OC[C@@H]5CO[C@@](Cn6cncn6)(c6ccc(F)cc6F)C5)cc4)CC3)cc2)c1=O [Example 1, Posaconazole Phosphate Monocholinate]
Result: 0.13

Query: # query: Related substance of entry CC[C@@H]([C@H](C)OP(=O)(O)O)n1ncn(-c2ccc(N3CCN(c4ccc(OC[C@@H]5CO[C@@](Cn6cncn6)(c6ccc(F)cc6F)C5)cc4)CC3)cc2)c1=O.N=C(N)NCCC[C@H](N)C(=O)O [Comparative Example 5, Posaconazole Phosphate Monoarginine Salt]
Result: 0.21

Query: # query: Related substance of entry CC[C@@H]([C@H](C)OP(=O)(O)O)n1ncn(-c2ccc(N3CCN(c4ccc(OC[C@@H]5CO[C@@](Cn6cncn6)(c6ccc(F)cc6F)C5)cc4)CC3)cc2)c1=O [Example 3]
Result: 0.13

---

# Related substance annotations
assay: Stability experiments under 40° C.±2° C. and 75% R.H±5% R.H (accelerated test); format: physicochemical; conditions: month 1; 40° C./75% R.H
Answer format: numeric, % implied, no suffix.

Query: # query: Related substance of entry CCC(C(C)OP(=O)([O-])[O-])n1ncn(-c2ccc(N3CCN(c4ccc(OCC5COC(Cn6cncn6)(c6ccc(F)cc6F)C5)cc4)CC3)cc2)c1=O.C[N+](C)(C)CCO.C[N+](C)(C)CCO.O.O.O.O.O (stereo not shown)
Result: 0.14

Query: # query: Related substance of entry CC[C@@H]([C@H](C)OP(=O)([O-])[O-])n1ncn(-c2ccc(N3CCN(c4ccc(OC[C@@H]5CO[C@@](Cn6cncn6)(c6ccc(F)cc6F)C5)cc4)CC3)cc2)c1=O.C[N+](C)(C)CCO.C[N+](C)(C)CCO [Comparative Example 1, Posaconazole Phosphate Bicholinate]
Result: 0.14

Query: # query: Related substance of entry CC[C@@H]([C@H](C)OP(=O)(O)O)n1ncn(-c2ccc(N3CCN(c4ccc(OC[C@@H]5CO[C@@](Cn6cncn6)(c6ccc(F)cc6F)C5)cc4)CC3)cc2)c1=O.CNC[C@H](O)[C@@H](O)[C@H](O)[C@H](O)CO
Result: 0.27

Query: # query: Related substance of entry CC[C@@H]([C@H](C)OP(=O)([O-])[O-])n1ncn(-c2ccc(N3CCN(c4ccc(OC[C@@H]5CO[C@@](Cn6cncn6)(c6ccc(F)cc6F)C5)cc4)CC3)cc2)c1=O.O.O.O.O.O.[Na+].[Na+]
Result: 0.28

Query: # query: Related substance of entry CC[C@@H]([C@H](C)OP(=O)(O)O)n1ncn(-c2ccc(N3CCN(c4ccc(OC[C@@H]5CO[C@@](Cn6cncn6)(c6ccc(F)cc6F)C5)cc4)CC3)cc2)c1=O.N=C(N)NCCC[C@H](N)C(=O)O [Comparative Example 5, Posaconazole Phosphate Monoarginine Salt]
Result: 0.28

Query: # query: Related substance of entry CC[C@@H]([C@H](C)OP(=O)(O)O)n1ncn(-c2ccc(N3CCN(c4ccc(OC[C@@H]5CO[C@@](Cn6cncn6)(c6ccc(F)cc6F)C5)cc4)CC3)cc2)c1=O [Example 1, Posaconazole Phosphate Monocholinate]
Result: 0.13

Query: # query: Related substance of entry CC[C@@H]([C@H](C)OP(=O)(O)O)n1ncn(-c2ccc(N3CCN(c4ccc(OC[C@@H]5CO[C@@](Cn6cncn6)(c6ccc(F)cc6F)C5)cc4)CC3)cc2)c1=O [Example 3]
Result: 0.13

---

experiment: in vivo; details: female, mouse, plasma, iv, 1 mg/kg
property: concentration at 4 h (ng/mL)
Answer format: numeric, ng/mL implied, no suffix.

Query: # query: concentration at 4 h of entry CC[C@@H]([C@H](C)OP(=O)(O)O)n1ncn(-c2ccc(N3CCN(c4ccc(OC[C@@H]5CO[C@@](Cn6cncn6)(c6ccc(F)cc6F)C5)cc4)CC3)cc2)c1=O [Example 1, Posaconazole Phosphate Monocholinate]
Result: 7520

---

# Content annotations
experiment: Stability experiments under 40° C.±2° C. and 75% R.H±5% R.H (accelerated test); type: physicochemical; settings: month 2; 40° C./75% R.H
Answer format: numeric, % implied, no suffix.

| molecule | property | reported measurement |
| --- | --- | --- |
| CC[C@@H]([C@H](C)OP(=O)(O)O)n1ncn(-c2ccc(N3CCN(c4ccc(OC[C@@H]5CO[C@@](Cn6cncn6)(c6ccc(F)cc6F)C5)cc4)CC3)cc2)c1=O.CNC[C@H](O)[C@@H](O)[C@H](O)[C@H](O)CO | Content | 99.62 |
| CCC(C(C)OP(=O)([O-])[O-])n1ncn(-c2ccc(N3CCN(c4ccc(OCC5COC(Cn6cncn6)(c6ccc(F)cc6F)C5)cc4)CC3)cc2)c1=O.C[N+](C)(C)CCO.C[N+](C)(C)CCO.O.O.O.O.O (stereo not shown) | Content | 99.85 |
| CC[C@@H]([C@H](C)OP(=O)(O)O)n1ncn(-c2ccc(N3CCN(c4ccc(OC[C@@H]5CO[C@@](Cn6cncn6)(c6ccc(F)cc6F)C5)cc4)CC3)cc2)c1=O [Example 1, Posaconazole Phosphate Monocholinate] | Content | 99.86 |

Query: # query: Content of entry CC[C@@H]([C@H](C)OP(=O)([O-])[O-])n1ncn(-c2ccc(N3CCN(c4ccc(OC[C@@H]5CO[C@@](Cn6cncn6)(c6ccc(F)cc6F)C5)cc4)CC3)cc2)c1=O.O.O.O.O.O.[Na+].[Na+]
Result: 99.62

---

# Content annotations
experiment: Stability experiments under 40° C.±2° C. and 75% R.H±5% R.H (accelerated test); assay type: physicochemical; details: month 3; 40° C./75% R.H
Answer format: numeric, % implied, no suffix.

Record excerpt, results attached:
| compound | Content / % |
| --- | --- |
| CC[C@@H]([C@H](C)OP(=O)([O-])[O-])n1ncn(-c2ccc(N3CCN(c4ccc(OC[C@@H]5CO[C@@](Cn6cncn6)(c6ccc(F)cc6F)C5)cc4)CC3)cc2)c1=O.C[N+](C)(C)CCO.C[N+](C)(C)CCO [Comparative Example 1, Posaconazole Phosphate Bicholinate] | 99.80 |
| CC[C@@H]([C@H](C)OP(=O)(O)O)n1ncn(-c2ccc(N3CCN(c4ccc(OC[C@@H]5CO[C@@](Cn6cncn6)(c6ccc(F)cc6F)C5)cc4)CC3)cc2)c1=O [Example 3] | 99.86 |
| CC[C@@H]([C@H](C)OP(=O)(O)O)n1ncn(-c2ccc(N3CCN(c4ccc(OC[C@@H]5CO[C@@](Cn6cncn6)(c6ccc(F)cc6F)C5)cc4)CC3)cc2)c1=O.N=C(N)NCCC[C@H](N)C(=O)O [Comparative Example 5, Posaconazole Phosphate Monoarginine Salt] | 99.50 |
| CC[C@@H]([C@H](C)OP(=O)([O-])[O-])n1ncn(-c2ccc(N3CCN(c4ccc(OC[C@@H]5CO[C@@](Cn6cncn6)(c6ccc(F)cc6F)C5)cc4)CC3)cc2)c1=O.O.O.O.O.O.[Na+].[Na+] | 99.45 |

Query: # query: Content of entry CCC(C(C)OP(=O)([O-])[O-])n1ncn(-c2ccc(N3CCN(c4ccc(OCC5COC(Cn6cncn6)(c6ccc(F)cc6F)C5)cc4)CC3)cc2)c1=O.C[N+](C)(C)CCO.C[N+](C)(C)CCO.O.O.O.O.O (centres unmarked)
Result: 99.79
